// fold increase in IFN-β release lookup, one value per entry
tested on: STING activation (IFNβ release) in iBMDMs; assay: IFNβ release ELISA after STING ligand (or LPS) stimulation, iBMDMs; format: cell-based, mouse; details: iBMDMs; 3′3′-cGAMP 10 μg/ml, 16 hours; compound 10 μM
Output spec: scalar in fold, unitless text.

Reference set, count: 3
{"ENTRY_SMILES": "CCO.N#CC(=C(/N)Sc1ccccc1N)/C(C#N)=C(\\N)Sc1ccccc1N", "EXPERIMENTAL_TARGET": "STING activation (IFNβ release) in iBMDMs", "fold increase in IFN-β release (fold)": 0.70}
{"ENTRY_SMILES": "CCCSc1nc(N[C@@H]2C[C@H]2c2ccc(F)c(F)c2)c2nnn([C@@H]3C[C@H](OCCO)[C@@H](O)[C@H]3O)c2n1", "EXPERIMENTAL_TARGET": "STING activation (IFNβ release) in iBMDMs", "fold increase in IFN-β release (fold)": 1.70}
{"ENTRY_SMILES": "COc1cc(OC)c(NC(=O)Nc2cc(C)on2)cc1Cl", "EXPERIMENTAL_TARGET": "STING activation (IFNβ release) in iBMDMs", "fold increase in IFN-β release (fold)": 0.12}

Okay, now this compound:
Ask: Endpoint output: fold increase in IFN-β release of CC(C)(Cc1ccc2ccccc2c1)NC[C@@H](O)COc1cccc(Cl)c1C#N . Value?
Result: 0.99

Just for reference, patent US11179412B2 is where these values come from.
